The following molecules are shown together with reported pIC50 values.
- System Tested: PDGFRβ (Rattus norvegicus (Rat), UniProt Q05030)
- Sequence (Q05030 32-1097): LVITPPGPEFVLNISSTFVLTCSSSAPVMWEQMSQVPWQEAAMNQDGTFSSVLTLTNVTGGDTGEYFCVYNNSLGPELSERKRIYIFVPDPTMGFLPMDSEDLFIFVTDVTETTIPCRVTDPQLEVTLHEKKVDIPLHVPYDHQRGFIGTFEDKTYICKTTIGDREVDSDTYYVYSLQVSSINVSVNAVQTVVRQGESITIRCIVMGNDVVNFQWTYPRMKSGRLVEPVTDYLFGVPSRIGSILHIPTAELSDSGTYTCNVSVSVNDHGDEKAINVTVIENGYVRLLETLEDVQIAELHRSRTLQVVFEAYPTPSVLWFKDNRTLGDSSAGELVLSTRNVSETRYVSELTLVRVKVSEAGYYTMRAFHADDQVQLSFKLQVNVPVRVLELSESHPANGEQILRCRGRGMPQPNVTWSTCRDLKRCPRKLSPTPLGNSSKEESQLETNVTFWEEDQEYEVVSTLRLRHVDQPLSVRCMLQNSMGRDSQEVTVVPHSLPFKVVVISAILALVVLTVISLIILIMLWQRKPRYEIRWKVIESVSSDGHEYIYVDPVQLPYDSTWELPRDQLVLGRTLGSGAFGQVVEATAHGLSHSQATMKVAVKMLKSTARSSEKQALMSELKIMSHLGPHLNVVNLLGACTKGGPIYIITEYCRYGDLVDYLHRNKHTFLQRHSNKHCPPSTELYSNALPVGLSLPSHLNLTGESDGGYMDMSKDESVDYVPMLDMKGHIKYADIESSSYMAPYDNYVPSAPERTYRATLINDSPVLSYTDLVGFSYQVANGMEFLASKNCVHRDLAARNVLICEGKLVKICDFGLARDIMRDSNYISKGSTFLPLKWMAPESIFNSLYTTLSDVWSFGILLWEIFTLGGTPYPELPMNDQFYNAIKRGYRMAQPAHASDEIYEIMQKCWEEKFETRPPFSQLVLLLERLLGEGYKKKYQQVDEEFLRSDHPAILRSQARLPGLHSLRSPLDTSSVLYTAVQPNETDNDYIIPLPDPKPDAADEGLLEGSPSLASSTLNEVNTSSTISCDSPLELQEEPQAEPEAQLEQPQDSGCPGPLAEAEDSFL
- Procedure Details: PDGFRβ Cellular Assay (PDGFRb P-Y751 HTRF in A10 cells stimulated with PDGF-BB)
- Type: cell-based
- Measurement Setup: read-out: PDGFR Cellular IC50
pIC50: −log10 of the molar value.

Molecule | System Tested | pIC50
Cc1ncc(NC(=O)CN2CC(C)(C)C2)cc1NC(=O)c1cnn2cc(-c3ccnc(N4CCOCC4)c3)sc12 [Example 284] | PDGFRβ (Rattus norvegicus (Rat), UniProt Q05030) | 8.55
Cc1ncc(C(=O)NCCN2CCCC2(C)C)cc1NC(=O)c1cnn2cc(-c3cncc(S(C)(=O)=O)c3)sc12 [Example 230] | PDGFRβ (Rattus norvegicus (Rat), UniProt Q05030) | 6.10
Cc1ncc(NC(=O)CN2CCC2)cc1NC(=O)c1cnn2cc(-c3cnn4c3OCCC4)sc12 [Example 412] | PDGFRβ (Rattus norvegicus (Rat), UniProt Q05030) | 7.11

###

- System Tested: Tb-labeled inactive PDGFRβ (Homo sapiens (Human), UniProt P09619)
- Sequence (P09619 33-1106): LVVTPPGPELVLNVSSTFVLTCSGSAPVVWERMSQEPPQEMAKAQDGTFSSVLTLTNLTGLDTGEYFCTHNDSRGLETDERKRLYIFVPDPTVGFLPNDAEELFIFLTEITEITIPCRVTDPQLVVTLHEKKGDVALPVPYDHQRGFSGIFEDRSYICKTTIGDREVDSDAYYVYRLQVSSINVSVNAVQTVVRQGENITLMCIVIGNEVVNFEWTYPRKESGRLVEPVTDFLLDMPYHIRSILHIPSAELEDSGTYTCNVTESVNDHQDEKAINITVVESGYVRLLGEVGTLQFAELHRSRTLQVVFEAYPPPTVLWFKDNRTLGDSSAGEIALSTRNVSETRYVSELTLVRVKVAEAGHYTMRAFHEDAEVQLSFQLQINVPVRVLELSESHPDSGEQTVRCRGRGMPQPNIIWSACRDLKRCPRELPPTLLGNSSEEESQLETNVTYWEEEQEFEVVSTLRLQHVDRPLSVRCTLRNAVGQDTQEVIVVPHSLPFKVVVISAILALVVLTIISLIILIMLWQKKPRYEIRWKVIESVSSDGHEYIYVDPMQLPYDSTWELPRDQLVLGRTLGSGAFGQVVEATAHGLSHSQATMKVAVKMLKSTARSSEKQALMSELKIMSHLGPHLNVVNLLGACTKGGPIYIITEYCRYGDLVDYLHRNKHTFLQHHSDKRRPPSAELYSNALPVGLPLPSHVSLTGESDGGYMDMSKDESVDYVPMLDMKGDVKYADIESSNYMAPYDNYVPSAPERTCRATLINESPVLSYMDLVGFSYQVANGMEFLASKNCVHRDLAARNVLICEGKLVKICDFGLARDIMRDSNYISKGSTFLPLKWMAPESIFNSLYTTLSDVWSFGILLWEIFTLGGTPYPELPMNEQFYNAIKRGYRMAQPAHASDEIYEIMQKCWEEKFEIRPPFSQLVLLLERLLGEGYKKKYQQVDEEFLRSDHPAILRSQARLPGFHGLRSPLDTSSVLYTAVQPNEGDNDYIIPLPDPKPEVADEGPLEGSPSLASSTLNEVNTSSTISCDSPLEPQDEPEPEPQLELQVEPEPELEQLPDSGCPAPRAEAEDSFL
- Procedure Details: PDGFRβ LanthaScreen Assay
- Measurement Setup: read-out: PDGFR Lantha IC50
pIC50: −log10 of the molar value.
Below, each entry is listed with its recorded pIC50.

Compound | System Tested | Value Operator | pIC50
Cn1cc(-c2cn3ncc(C(=O)Nc4sc(C(=O)NCCN5CCCC56CCC6)cc4C#N)c3s2)cn1 | Tb-labeled inactive PDGFRβ (Homo sapiens (Human), UniProt P09619) | < | 5.52
COCCn1cc(-c2cn3ncc(C(=O)Nc4cc(C(=O)NCCN5CCC(F)(F)CC5)cnc4C)c3s2)cn1 | Tb-labeled inactive PDGFRβ (Homo sapiens (Human), UniProt P09619) | = | 8.47
Cc1ncc(NC(=O)CN2CC(C)(C)C2)cc1NC(=O)c1cnn2cc(-c3ccc(CO)s3)sc12 | Tb-labeled inactive PDGFRβ (Homo sapiens (Human), UniProt P09619) | = | 8.85
Cc1ncc(NC(=O)C[C@@H]2CCCN2C(C)C)cc1NC(=O)c1cnn2cc(-c3cccnc3O)sc12 | Tb-labeled inactive PDGFRβ (Homo sapiens (Human), UniProt P09619) | = | 7.81
Cc1ncc(NC(=O)CN2Cc3cccnc3C2)cc1NC(=O)c1cnn2cc(-c3cnn(C)c3)sc12 | Tb-labeled inactive PDGFRβ (Homo sapiens (Human), UniProt P09619) | = | 7.77
COCCn1cc(-c2cn3ncc(C(=O)Nc4cc(NC(=O)CCN5C[C@H]6CC[C@@H]5C6)cnc4C)c3s2)cn1 | Tb-labeled inactive PDGFRβ (Homo sapiens (Human), UniProt P09619) | = | 7.85
Cc1ncc(C(=O)NCCN2CCCC2(C)C)cc1NC(=O)c1cnn2cc(-c3cnn(CCO)c3)sc12 | Tb-labeled inactive PDGFRβ (Homo sapiens (Human), UniProt P09619) | = | 8.31
Cc1ncc(C(=O)NCCN2CCCC2(C)C)cc1NC(=O)c1cnn2cc(-c3cnn(CCC(O)CO)c3)sc12 (stereo not drawn) | Tb-labeled inactive PDGFRβ (Homo sapiens (Human), UniProt P09619) | = | 8.15
Cc1ncc(NC(=O)CNC2CCCC2)cc1NC(=O)c1cnn2cc(-c3cnn4c3OCCC4)sc12 | Tb-labeled inactive PDGFRβ (Homo sapiens (Human), UniProt P09619) | = | 8.70
COc1ncccc1-c1cn2ncc(C(=O)Nc3cc(NC(=O)CN4C[C@H](C)O[C@@H](C)C4)cnc3C)c2s1 (relative stereo) [Example 368] | Tb-labeled inactive PDGFRβ (Homo sapiens (Human), UniProt P09619) | = | 8.62
COc1ncccc1-c1cn2ncc(C(=O)Nc3cc(NC(=O)CN4CCCC5(CC5)C4)cnc3C)c2s1 | Tb-labeled inactive PDGFRβ (Homo sapiens (Human), UniProt P09619) | = | 9.00
Cc1ncc(C(=O)NCCN2CCCC2(C)C)cc1NC(=O)c1cnn2cc(-c3cnn(Cc4cc(O)no4)c3)sc12 | Tb-labeled inactive PDGFRβ (Homo sapiens (Human), UniProt P09619) | = | 7.85
COCCn1cc(-c2cn3ncc(C(=O)Nc4cc(NC(=O)C[C@@H]5CCN(C(C)C)C5)cnc4C)c3s2)cn1 | Tb-labeled inactive PDGFRβ (Homo sapiens (Human), UniProt P09619) | = | 6.58
Cc1cc(C(=O)NCCN2CCCC2(C)C)sc1NC(=O)c1cnn2cc(-c3ccn(C)n3)sc12 | Tb-labeled inactive PDGFRβ (Homo sapiens (Human), UniProt P09619) | = | 6.17
COCCn1cc(-c2cn3ncc(C(=O)Nc4cc(NC(=O)CCC5CCCN5C)cnc4C)c3s2)cn1 (stereo not drawn) | Tb-labeled inactive PDGFRβ (Homo sapiens (Human), UniProt P09619) | = | 7.82
